System: 496974-208-R-J2-PDC complex spheroids, growth % test/control
Experiment: Anticancer human tumor 496974-208-R-J2-PDC patient-derived pancreatic carcinoma cell line growth inhibition [CLK]; active means viability on the fitted dose curve at most 10% of control; inactive means the rest
Conditions: second compound 3.16 µM; first compound 1 µM
Could you please pick one outcome from this set? active, inactive

{"molecule": "CC1COCCN1c1cc(C2(S(C)(=N)=O)CC2)nc(-c2ccnc3[nH]ccc23)n1 (stereo not given) + CN1CCN(c2cc(C(=O)Nc3cc4cc(-c5cnn(C)c5)ccc4cn3)ccn2)CC1", "measuredTarget": "496974-208-R-J2-PDC complex spheroids, growth % test/control", "className": "active"}
{"molecule": "COc1ccc([C@@H](O)c2cc(-c3ncnc4cc(N5CCOCC5)ccc34)c(F)cc2Cl)nn1 + CNC(=O)c1ccc(Nc2nc(OC3CCCC3)c3c(-c4ccc5nc(C)oc5c4)c[nH]c3n2)c(OC)c1", "measuredTarget": "496974-208-R-J2-PDC complex spheroids, growth % test/control", "className": "inactive"}
{"molecule": "COc1cccc2c1C(=O)c1c(O)c3c(c(O)c1C2=O)CC(O)(C(=O)CO)CC3OC1CC(N)C(O)C(C)O1 (stereo not given) + CN1CCN(c2cc(C(=O)Nc3cc4cc(-c5cnn(C)c5)ccc4cn3)ccn2)CC1", "measuredTarget": "496974-208-R-J2-PDC complex spheroids, growth % test/control", "className": "active"}

Now examine the next entry.
Fill in: this test's call for COc1c(OCCCN2CCOCC2)ccc2c3n(c(=NC(=O)c4cnc(N)nc4)nc12)CCN3 + CN1CCN(c2cc(C(=O)Nc3cc4cc(-c5cnn(C)c5)ccc4cn3)ccn2)CC1 is ___
active

----------
Tested on: 496974-208-R-J2-PDC complex spheroids, growth % test/control
Test: Anticancer human tumor 496974-208-R-J2-PDC cell line growth inhibition [CLK];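 further: spheroids exposed to the drugs for 7 days before readout; 100% = DMSO vehicle control wells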
Details: second compound 0.316 µM; first compound 0.00949 µM; hits give low values
Text: A high-throughput screen of multi-cell type tumor spheroids was designed to identify active combinations of […] and targeted small molecules. Complex spheroids include a stromal component modeled by human endothelial cells (HUVEC) and fibroblasts modeled by human mesenchymal stem cells (MSCs). […] Compounds. […] If the clinical Cmax for an agent had not been determined, the highest concentration tested was 10 microM. […]
observable: viability, T/C (%)
Return type: number; implicit unit %.

{"molecule": "C=CC(=O)Nc1cc(Nc2nccc(-c3cn(C)c4ccccc34)n2)c(OC)cc1N(C)CCN(C)C + CN1CCN(c2cc(C(=O)Nc3cc4cc(-c5cnn(C)c5)ccc4cn3)ccn2)CC1", "unitLabel": "%", "measValue": 5.85}
{"molecule": "NC(=O)C(=Cn1cnc(-c2cc(C(F)(F)F)cc(C(F)(F)F)c2)n1)c1cncnc1 + CNC(=O)c1ccc(Nc2nc(OC3CCCC3)c3c(-c4ccc5nc(C)oc5c4)c[nH]c3n2)c(OC)c1", "unitLabel": "%", "measValue": 47.2}
{"molecule": "C=CC(=O)Nc1cc(Nc2nccc(-c3cn(C)c4ccccc34)n2)c(OC)cc1N(C)CCN(C)C + CNC(=O)c1ccc(Nc2nc(OC3CCCC3)c3c(-c4ccc5nc(C)oc5c4)c[nH]c3n2)c(OC)c1", "unitLabel": "%", "measValue": 85.2}
{"molecule": "CC(C)CC(NC(=O)C(Cc1ccccc1)NC(=O)c1cnccn1)B(O)O (stereo not given) + CN1CCN(c2cc(C(=O)Nc3cc4cc(-c5cnn(C)c5)ccc4cn3)ccn2)CC1", "unitLabel": "%", "measValue": 0.71}

Quick one: viability, T/C of NC(=O)C(=Cn1cnc(-c2cc(C(F)(F)F)cc(C(F)(F)F)c2)n1)c1cncnc1 + CN1CCN(c2cc(C(=O)Nc3cc4cc(-c5cnn(C)c5)ccc4cn3)ccn2)CC1 ?
2.46

----------
System: 496974-208-R-J2-PDC complex spheroids, growth % test/control
Assay: Anticancer human tumor 496974-208-R-J2-PDC cell line growth inhibition [CLK]; active means viability on the fitted dose curve at most 10% of control; inactive means the rest;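 further: spheroids exposed to the drugs for 7 days before readout; 100% = DMSO vehicle control wells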
Settings: second compound 10 µM; first compound 0.1 µM
Could you please pick one outcome from this set? active, inactive

Solved entries:
{"molecule": "COc1c(OCCCN2CCOCC2)ccc2c3n(c(=NC(=O)c4cnc(N)nc4)nc12)CCN3 + CNC(=O)c1ccc(Nc2nc(OC3CCCC3)c3c(-c4ccc5nc(C)oc5c4)c[nH]c3n2)c(OC)c1", "className": "inactive"}
{"molecule": "CC(CO)NC(=O)c1cc(-c2ccc(Cl)cc2)nn(-c2cnn(C)c2)c1=O (stereo unspecified) + CN1CCN(c2cc(C(=O)Nc3cc4cc(-c5cnn(C)c5)ccc4cn3)ccn2)CC1", "className": "active"}
{"molecule": "CCc1c2c(nc3ccc(O)cc13)-c1cc3c(c(=O)n1C2)COC(=O)[C@]3(O)CC + CN1CCN(c2cc(C(=O)Nc3cc4cc(-c5cnn(C)c5)ccc4cn3)ccn2)CC1", "className": "active"}
{"molecule": "Nc1ccn(C2OC(CO)C(O)C2(F)F)c(=O)n1 (stereo unspecified) + CN1CCN(c2cc(C(=O)Nc3cc4cc(-c5cnn(C)c5)ccc4cn3)ccn2)CC1", "className": "active"}
{"molecule": "COc1c(OCCCN2CCOCC2)ccc2c3n(c(=NC(=O)c4cnc(N)nc4)nc12)CCN3 + CN1CCN(c2cc(C(=O)Nc3cc4cc(-c5cnn(C)c5)ccc4cn3)ccn2)CC1", "className": "active"}

Now examine the next entry.
Fill in: this test's call for O=c1[nH]cc(F)c(=O)[nH]1 + CN1CCN(c2cc(C(=O)Nc3cc4cc(-c5cnn(C)c5)ccc4cn3)ccn2)CC1 is ___
active

----------
System: 496974-208-R-J2-PDC complex spheroids, growth % test/control
Assay: Anticancer human tumor 496974-208-R-J2-PDC cell line growth inhibition [CLK];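 further: spheroids exposed to the drugs for 7 days before readout; 100% = DMSO vehicle control wells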
Conditions: second compound 0.0316 µM; first compound 3.16 µM; hits give low values
Measured viability, T/C values are reported for all entries that follow.

Worked cases, viability, T/C given:
{"compound": "Nc1ccn(C2OC(CO)C(O)C2(F)F)c(=O)n1 (stereo unspecified) + CNC(=O)c1ccc(Nc2nc(OC3CCCC3)c3c(-c4ccc5nc(C)oc5c4)c[nH]c3n2)c(OC)c1", "measuredTarget": "496974-208-R-J2-PDC complex spheroids, growth % test/control", "observable": "viability, T/C", "measValue": "68.5%"}
{"compound": "CCCS(=O)(=O)Nc1ccc(F)c(C(=O)c2c[nH]c3ncc(-c4ccc(Cl)cc4)cc23)c1F + CNC(=O)c1ccc(Nc2nc(OC3CCCC3)c3c(-c4ccc5nc(C)oc5c4)c[nH]c3n2)c(OC)c1", "measuredTarget": "496974-208-R-J2-PDC complex spheroids, growth % test/control", "observable": "viability, T/C", "measValue": "91%"}
{"compound": "C=C(F)C(=O)N1CCN(c2nc(OCC3CCCN3C)nc3c2CCN(c2cccc4cccc(Cl)c24)C3)CC1CC#N (stereo unspecified) + CN1CCN(c2cc(C(=O)Nc3cc4cc(-c5cnn(C)c5)ccc4cn3)ccn2)CC1", "measuredTarget": "496974-208-R-J2-PDC complex spheroids, growth % test/control", "observable": "viability, T/C", "measValue": "88.8%"}
{"compound": "O=C(c1cc(Cc2n[nH]c(=O)c3ccccc23)ccc1F)N1CCN(C(=O)C2CC2)CC1 + CN1CCN(c2cc(C(=O)Nc3cc4cc(-c5cnn(C)c5)ccc4cn3)ccn2)CC1", "measuredTarget": "496974-208-R-J2-PDC complex spheroids, growth % test/control", "observable": "viability, T/C", "measValue": "88.3%"}
{"compound": "CC(CO)NC(=O)c1cc(-c2ccc(Cl)cc2)nn(-c2cnn(C)c2)c1=O (stereo unspecified) + CN1CCN(c2cc(C(=O)Nc3cc4cc(-c5cnn(C)c5)ccc4cn3)ccn2)CC1", "measuredTarget": "496974-208-R-J2-PDC complex spheroids, growth % test/control", "observable": "viability, T/C", "measValue": "79.8%"}

Attention now turns to another entry.
Quick one: viability, T/C of CC1COCCN1c1cc(C2(S(C)(=N)=O)CC2)nc(-c2ccnc3[nH]ccc23)n1 (stereo unspecified) + CN1CCN(c2cc(C(=O)Nc3cc4cc(-c5cnn(C)c5)ccc4cn3)ccn2)CC1 ?
53.3%

----------
Measured viability, T/C values are reported for all entries that follow.
Test system: 496974-208-R-J2-PDC complex spheroids, growth % test/control
Assay: Anticancer human tumor 496974-208-R-J2-PDC cell line growth inhibition [CLK];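 further: spheroids exposed to the drugs for 7 days before readout; 100% = DMSO vehicle control wells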
Conditions: second compound 3.16 µM; first compound 1 µM; hits give low values
Return type: number; implicit unit %.

Worked cases, viability, T/C given:
{"compound": "COC1C=CCC(C)C(C)S(=O)(=O)NC(=O)c2ccc3c(c2)N(CC2CCC21)CC1(CCCc2cc(Cl)ccc21)CO3 (stereo not drawn) + CN1CCN(c2cc(C(=O)Nc3cc4cc(-c5cnn(C)c5)ccc4cn3)ccn2)CC1", "observable": "viability, T/C", "measValue": 0.35}
{"compound": "CCN1CCN(Cc2ccc(Nc3ncc(F)c(-c4cc(F)c5nc(C)n(C(C)C)c5c4)n3)nc2)CC1 + CN1CCN(c2cc(C(=O)Nc3cc4cc(-c5cnn(C)c5)ccc4cn3)ccn2)CC1", "observable": "viability, T/C", "measValue": 4.6}

Quick one: viability, T/C of Nc1ccn(C2OC(CO)C(O)C2(F)F)c(=O)n1 (stereo not drawn) + CNC(=O)c1ccc(Nc2nc(OC3CCCC3)c3c(-c4ccc5nc(C)oc5c4)c[nH]c3n2)c(OC)c1 ?
41
